Source of measurements: patent US12186278B2

assay: Pharmacokinetic analysis of RAD001 in blood of NSG mice with NALM6 tumors; assay type: in vivo; conditions: NSG, mouse, blood; lowest dose tested (0.3 mg/kg), oral; day 0 and day 14 PK; read-out: RAD001 concentrations in the blood 24 hours after dosing
property measured: concentration at 24 h

Reported concentration at 24 h of CO[C@H]1C[C@@H]2CC[C@@H](C)[C@@](O)(O2)C(=O)C(=O)N2CCCC[C@H]2C(=O)O[C@H]([C@H](C)C[C@@H]2CC[C@@H](OCCO)[C@H](OC)C2)CC(=O)[C@H](C)/C=C(\C)[C@@H](O)[C@@H](OC)C(=O)[C@H](C)C[C@H](C)/C=C/C=C/C=C/1C : > 10 nM
